Assay: Cytotoxicity against human CNE2Z cells assessed as growth inhibition after 48 hrs by MTT assay
Assay type: functional, cell-based
PARAMETER: pIC50
Formally, pIC50 is defined as -log10 of the concentration c, with c in mol/L.

Q. Consider the compound `C[C@]12CC[C@H]3[C@@H](CC[C@@H]4C[C@@H](O)CC[C@@]43C=O)[C@]13O[C@@H]3C[C@@H]2c1ccc(=O)oc1` . State its measured pIC50.
A. 4.58

Moving on to the next compound.
Q. Indicate its recorded pIC50; the compound in question is `C[C@]12CC[C@H](O)C[C@H]1CC[C@@H]1[C@@H]2CC[C@]2(C)[C@@H](c3ccc(=O)oc3)[C@@H](O)C[C@]12O`
A. 5.75

---

Assay: Cytotoxicity against human CNE2Z cells assessed as growth inhibition after 48 hrs by MTT assay
Assay type: functional, cell-based
PARAMETER: IC50 (nM)
Reply with just the number (in nM).

Q. Give IC50 for `C[C@]12CC[C@H](OC(=O)CCCCCCC(=O)O)C[C@H]1CC[C@@H]1[C@@H]2CC[C@]2(C)[C@@H](c3ccc(=O)oc3)CC[C@]12O`
A. 7380

Continuing:
Q. Tell me measured IC50 for `COC(=O)CCCCCCC(=O)O[C@H]1CC[C@@]2(C)[C@H](CC[C@@H]3[C@@H]2CC[C@]2(C)[C@@H](c4ccc(=O)oc4)CC[C@]32O)C1` please.
A. 2860

Q. Supply measured IC50 of `CC(=O)O[C@H]1[C@H]2O[C@]23[C@@H]2CC[C@@H]4C[C@@H](O)CC[C@]4(C)[C@H]2CC[C@]3(C)[C@H]1c1ccc(=O)oc1` in your reply.
A. 390

Q. Complete the entry with IC50 for `C[C@]12CC[C@H](O)C[C@H]1CC[C@@H]1[C@@H]2CC[C@]2(C)[C@@H](c3ccc(=O)oc3)CC[C@]12O`
A. 460

---

Assay: Cytotoxicity against human CNE1 cells assessed as growth inhibition after 48 hrs by MTT assay
Type: functional, cell-based
Details: CNE
PARAMETER: pIC50
# log scale: pIC50 equals minus log10 of the concentration in mol/L

As a guide, the following entries are already answered.
Q. Specify reported pIC50 for the compound shown: `C[C@]12CC[C@H]3[C@@H](CC[C@@H]4C[C@@H](O)CC[C@@]43C=O)[C@]13O[C@@H]3C[C@@H]2c1ccc(=O)oc1`
A. 4.82

Q. Dear colleague, please send me the reported pIC50 for `C[C@]12CC[C@H](O)C[C@H]1CC[C@@H]1[C@@H]2CC[C@]2(C)[C@@H](c3ccc(=O)oc3)CC[C@]12O` when you can.
A. 6.55

Q. # return recorded pIC50 for input `C[C@]12CC[C@H](OC(=O)CCCCCCC(=O)O)C[C@H]1CC[C@@H]1[C@@H]2CC[C@]2(C)[C@@H](c3ccc(=O)oc3)CC[C@]12O`
A. 5.30

Q. Please list pIC50 recorded for the compound `COC(=O)CCCCCCC(=O)O[C@H]1CC[C@@]2(C)[C@H](CC[C@@H]3[C@@H]2CC[C@]2(C)[C@@H](c4ccc(=O)oc4)CC[C@]32O)C1`
A. 5.76

***
Q. Using known records, supply pIC50 for `CC(=O)O[C@H]1[C@H]2O[C@]23[C@@H]2CC[C@@H]4C[C@@H](O)CC[C@]4(C)[C@H]2CC[C@]3(C)[C@H]1c1ccc(=O)oc1`
A. 6.51

Q. Specify pIC50 for `C[C@]12CC[C@H](O)C[C@H]1CC[C@@H]1[C@@H]2CC[C@]2(C)[C@@H](c3ccc(=O)oc3)[C@@H](O)C[C@]12O` and stop.
A. 5.31
